B1: TRAF3IP2 (parent)
chain: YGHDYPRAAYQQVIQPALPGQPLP

Variants of: B1
PROTOCOL_NOTES: protein stability index of a GFP-peptide fusion (GPS, HEK-293T) (PSI 1-6); higher = more stable;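 note: lentivirally expressed fusions sorted by FACS into six bins by GFP to DsRed ratio, PSI derived from sequencing read proportions per bin multiplied by bin number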
DETAILS: c terminus: a fixed tail appended
Form field: protein stability index (one value per entry).
Lab note: write the figure by itself, no unit.

• YGHDYPRAAYQQVIQPALPNQPLP [G20N] = 2.68
• YGYDYPRAAYQQVIQPALPGQPLP [H3Y] = 1.74
• YGHDYPRANYQQVIQPALPGQPLP [A9N] = 1.73
• YGHDYPRFAYQQVIQPALPGQPLP [A8F] = 2.94

Exercise: Reported protein stability index for YGHDYPRAAYQQVIQPALPGQPAP [L23A] : what is it?
Solution: 2.62

Exercise: Query: protein stability index; subject: YGHDLPRAAYQQVIQPALPGQPLP [Y5L]
Solution: 3.58

Exercise: Name the recorded protein stability index for YGHDYPRAAYQQVHQPALPGQPLP [I14H] .
Solution: 1.88

Exercise: Quick one: protein stability index for YGHGYPRAAYQQVIQPALPGQPLP [D4G] ?
Solution: 2.05
